- TEST TARGET: T1, human TGFβ3 (human, UniProt P10600 301-412)
- T1 sequence: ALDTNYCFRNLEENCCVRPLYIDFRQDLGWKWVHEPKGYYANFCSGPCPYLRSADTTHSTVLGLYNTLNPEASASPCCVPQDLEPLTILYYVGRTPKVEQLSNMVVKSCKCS
- ASSAY INFO: Biacore, 3.33-90 nM, 1:1 global fit, vs wt GC1008
# note: boundary value 1 maps to Criterion not met; KD mutant/KD wt below it maps to Criterion met

BINDER	CLASS
D56R (antibody, V domains shown, GC1008 IgG4 variant) VH: QVQLVQSGAEVKKPGSSVKVSCKASGYTFSSNVISWVRQAPGQGLEWMGGVIPIVRIANYAQRFKGRVTITADESTSTTYMELSSLRSEDTAVYYCASTLGLVLDAMDYWGQGTLVTVSS VL: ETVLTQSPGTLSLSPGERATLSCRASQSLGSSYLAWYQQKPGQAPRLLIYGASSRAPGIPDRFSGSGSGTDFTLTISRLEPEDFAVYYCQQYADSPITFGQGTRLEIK	Criterion met
I54T (antibody, V domains shown, GC1008 IgG4 variant) VH: QVQLVQSGAEVKKPGSSVKVSCKASGYTFSSNVISWVRQAPGQGLEWMGGVIPTVDIANYAQRFKGRVTITADESTSTTYMELSSLRSEDTAVYYCASTLGLVLDAMDYWGQGTLVTVSS VL: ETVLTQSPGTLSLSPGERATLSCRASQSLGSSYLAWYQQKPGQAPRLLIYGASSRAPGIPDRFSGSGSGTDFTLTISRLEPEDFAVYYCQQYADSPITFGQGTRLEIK	Criterion not met
I54W (antibody, V domains shown, GC1008 IgG4 variant) VH: QVQLVQSGAEVKKPGSSVKVSCKASGYTFSSNVISWVRQAPGQGLEWMGGVIPWVDIANYAQRFKGRVTITADESTSTTYMELSSLRSEDTAVYYCASTLGLVLDAMDYWGQGTLVTVSS VL: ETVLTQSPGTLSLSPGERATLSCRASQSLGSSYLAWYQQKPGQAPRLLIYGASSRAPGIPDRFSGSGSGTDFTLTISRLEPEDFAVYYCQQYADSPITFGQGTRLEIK	Criterion not met
S31W (antibody, V domains shown, GC1008 IgG4 variant) VH: QVQLVQSGAEVKKPGSSVKVSCKASGYTFSWNVISWVRQAPGQGLEWMGGVIPIVDIANYAQRFKGRVTITADESTSTTYMELSSLRSEDTAVYYCASTLGLVLDAMDYWGQGTLVTVSS VL: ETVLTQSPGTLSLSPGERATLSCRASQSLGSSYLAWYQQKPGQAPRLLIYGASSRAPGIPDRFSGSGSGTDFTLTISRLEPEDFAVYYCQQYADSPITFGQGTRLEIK	Criterion not met
